Quick list: IC50 per entry.
# assayed target: MAdCAM-1/α4β7 integrin (Homo sapiens, UniProt P13612+P26010)
# Construct: a human B-cell line known to express α4β7 integrin; endogenous in cells
# Sequence (P13612 34-1032): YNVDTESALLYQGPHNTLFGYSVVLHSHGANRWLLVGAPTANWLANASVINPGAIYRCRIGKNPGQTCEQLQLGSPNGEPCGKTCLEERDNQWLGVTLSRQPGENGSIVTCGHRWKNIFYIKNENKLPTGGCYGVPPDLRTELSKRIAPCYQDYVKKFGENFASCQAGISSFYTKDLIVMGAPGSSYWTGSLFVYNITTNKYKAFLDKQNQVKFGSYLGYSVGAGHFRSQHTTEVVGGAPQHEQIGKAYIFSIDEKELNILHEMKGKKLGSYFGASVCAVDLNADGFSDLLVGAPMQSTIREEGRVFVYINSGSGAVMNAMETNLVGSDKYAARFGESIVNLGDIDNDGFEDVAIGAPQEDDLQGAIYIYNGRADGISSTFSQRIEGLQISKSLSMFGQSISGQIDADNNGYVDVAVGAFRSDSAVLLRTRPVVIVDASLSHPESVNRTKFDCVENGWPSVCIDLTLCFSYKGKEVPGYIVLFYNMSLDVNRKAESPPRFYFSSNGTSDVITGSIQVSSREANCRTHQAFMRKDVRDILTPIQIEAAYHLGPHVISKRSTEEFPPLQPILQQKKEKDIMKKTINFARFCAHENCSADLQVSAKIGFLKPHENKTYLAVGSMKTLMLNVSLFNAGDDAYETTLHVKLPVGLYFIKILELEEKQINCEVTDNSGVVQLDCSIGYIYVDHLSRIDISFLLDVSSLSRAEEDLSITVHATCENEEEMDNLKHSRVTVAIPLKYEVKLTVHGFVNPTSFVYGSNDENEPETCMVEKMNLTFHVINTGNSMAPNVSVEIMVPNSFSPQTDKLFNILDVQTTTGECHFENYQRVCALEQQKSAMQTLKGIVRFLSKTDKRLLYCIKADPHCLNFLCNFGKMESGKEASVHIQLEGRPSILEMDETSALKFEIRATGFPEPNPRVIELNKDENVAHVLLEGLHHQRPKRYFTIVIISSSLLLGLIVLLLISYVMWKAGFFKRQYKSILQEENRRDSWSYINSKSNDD
# Sequence (P26010 20-798): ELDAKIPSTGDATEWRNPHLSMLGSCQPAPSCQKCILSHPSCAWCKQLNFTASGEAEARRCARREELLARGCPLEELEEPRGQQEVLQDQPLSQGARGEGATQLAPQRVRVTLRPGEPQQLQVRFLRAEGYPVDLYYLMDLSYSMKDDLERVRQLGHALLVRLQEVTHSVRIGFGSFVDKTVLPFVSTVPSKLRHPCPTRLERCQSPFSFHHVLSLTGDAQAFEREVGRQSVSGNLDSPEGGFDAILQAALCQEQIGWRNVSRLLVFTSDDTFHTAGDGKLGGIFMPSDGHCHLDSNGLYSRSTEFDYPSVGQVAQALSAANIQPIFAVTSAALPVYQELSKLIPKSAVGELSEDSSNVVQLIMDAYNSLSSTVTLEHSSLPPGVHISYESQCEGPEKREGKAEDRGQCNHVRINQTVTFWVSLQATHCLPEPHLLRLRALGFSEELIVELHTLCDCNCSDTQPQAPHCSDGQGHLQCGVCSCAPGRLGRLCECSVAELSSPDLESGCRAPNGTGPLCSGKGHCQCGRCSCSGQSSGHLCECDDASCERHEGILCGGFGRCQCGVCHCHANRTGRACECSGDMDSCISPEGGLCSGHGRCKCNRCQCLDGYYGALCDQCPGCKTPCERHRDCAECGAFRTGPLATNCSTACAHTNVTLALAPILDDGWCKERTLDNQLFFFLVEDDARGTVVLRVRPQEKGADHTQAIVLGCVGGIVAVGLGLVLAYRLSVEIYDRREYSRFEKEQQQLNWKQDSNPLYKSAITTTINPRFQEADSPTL
# run description: Evaluation test (1) for MAdCAM-1/α4β7 integrin binding inhibitory activity in the presence of serum (RPMI-8866 cell binding to MAdCAM-1/Fc)
# test conditions: RPMI-8866 cells, recombinant mouse MAdCAM-1/Fc, human serum at final concentration of 50%; read-out: α4β7 Serum Activity rank when α4β7 serum was added
readout type: IC50

                              line_notation                            assayed_target    test_value
0  COCc1ncc(-c2ccc(S(=O)(=O)Nc3cc(F)c(C(=O)N[C@@H](Cc4ccc(-n5c(=O)c6ccncc6n(C)c5=O)cn4)C(=O)O)cc3F)cc2)cn1  MAdCAM-1/α4β7 integrin (Homo sapiens, UniProt P13612+P26010)   10 to 50 nM
1  COc1cc2c(=O)n(-c3ccc(C[C@H](NC(=O)c4cc(F)c(NS(=O)(=O)c5ccc(-c6cnc(COC(C)C)nc6)cc5)cc4F)C(=O)O)nc3)c(=O)n(C)c2cn1  MAdCAM-1/α4β7 integrin (Homo sapiens, UniProt P13612+P26010)      > 200 nM
2  CC(C)OCc1ncc(-c2ccc(S(=O)(=O)Nc3cc(F)c(C(=O)N[C@@H](Cc4ccc(-n5c(=O)ccn(C)c5=O)cc4)C(=O)O)cc3F)cc2)cn1  MAdCAM-1/α4β7 integrin (Homo sapiens, UniProt P13612+P26010)  50 to 200 nM
3  CNCc1ccc2c(c1)c(=O)n(-c1ccc(C[C@H](NC(=O)c3cc(F)c(NS(=O)(=O)c4ccc(-c5cnc(COC)nc5)cc4)cc3F)C(=O)O)cc1)c(=O)n2C  MAdCAM-1/α4β7 integrin (Homo sapiens, UniProt P13612+P26010)   10 to 50 nM
4  COCc1cn(-c2ccc(S(=O)(=O)Nc3cc(F)c(C(=O)N[C@@H](Cc4ccc(-n5c(=O)c6ccncc6n(C)c5=O)cn4)C(=O)O)cc3F)cc2)nn1  MAdCAM-1/α4β7 integrin (Homo sapiens, UniProt P13612+P26010)  50 to 200 nM
5  Cn1c(=O)n(-c2ccc(C[C@H](NC(=O)c3cc(F)c(NS(=O)(=O)c4ccc(-c5ccnc(C6CCOCC6)c5)cn4)cc3F)C(=O)O)nc2)c(=O)c2ccncc21  MAdCAM-1/α4β7 integrin (Homo sapiens, UniProt P13612+P26010)   10 to 50 nM
6  Cc1c(-c2ccc(C[C@H](NC(=O)c3cc(F)c(NS(=O)(=O)c4ccc(-c5cnc(C6CCOCC6)nc5)cc4)cc3F)C(=O)O)cc2)c(=O)n(C)c(=O)n1C  MAdCAM-1/α4β7 integrin (Homo sapiens, UniProt P13612+P26010)   10 to 50 nM
